Test system: OVCAR-4 ovarian
Assay: NCI-60 one-dose screen, 48 h (100 = growth as untreated, 0 = no growth, -100 = all killed)
Settings: 10 µM unless noted
Compounds without any hit were thinned out: in the full panel of roughly 83,000, 20% have a hit. Active and inactive are the calls of the source. The calls were made as follows: active = growth percent below 10; inactive = the rest.
metric.name: growth

## Input // growth lookup, key: Cc1sc2nc3[nH]/c(=C\c4ccc(Cl)cc4)c(=O)n3c(=O)c2c1C
## Output 105% (inactive)

## Input // growth lookup, key: COc1ccc(-c2cc(/C=C3\C(=O)Nc4ccc(Cl)cc43)[nH]n2)cc1
## Output 101% (inactive)

## Input // growth lookup, key: Cn1c2ccccc2c2c3c(c4c5ccccc5[nH]c4c21)C(=O)N(N)C3=O
## Output 73% (inactive)

## Input // growth lookup, key: COc1ccc(C(=O)/C=C/c2c[n+](=O)c3ccc(F)cc3n2[O-])cc1
## Output 106% (inactive)

## Input // growth lookup, key: CCCCNC(=O)NS(=O)(=O)c1ccc(N2N=C(c3cc(C)ccc3C)CC2c2cc(OC)c(OC)c(OC)c2)cc1 (stereo not given)
## Output 77.7% (inactive)

## Input // growth lookup, key: O=C1CCc2c(sc3[nH]c(=S)n(Cc4ccccc4)c(=O)c23)C1
## Output 21.8% (inactive)

## Input // growth lookup, key: COC(=O)C12C3C(=O)N(c4ccc(OC)cc4)C(=O)C3C(c3cn(-c4ccccc4)nc3C)N1[C@H](c1cn(-c3ccccc3)nc1C)[C@@H]1C(=O)N(c3ccc(OC)cc3)C(=O)[C@@H]12 (stereo not given in full)
## Output 108% (inactive)

## Input // growth lookup, key: CC(=O)OCC(=O)C1CCC=CC1OC(C)=O (stereo not given)
## Output 94.4% (inactive)

## Input // growth lookup, key: CNCc1cccc2c1OCCOCCOCCN(C)S(=O)(=O)c1ccc(cc1)-c1cnc(N)c(n1)C(=O)N2
## Output 72.8% (inactive)

## Input // growth lookup, key: OCCNCCNc1c2ccccc2nc2ccccc12
## Output 63.9% (inactive)
